B1: library; a variant is named by its letters at N, in order (parent)
chain: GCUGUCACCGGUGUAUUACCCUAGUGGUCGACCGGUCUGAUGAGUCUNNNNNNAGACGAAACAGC

# Variants of: B1
# assay-name: FACS-Seq fitted mean relative fluorescence mCherry/BFP without ligand (log10 relative fluorescence); ligand: hypoxanthine (xanthine aptamer); higher = higher reporter protein expression
# test-parameters: HEK293T, ligand present: no
Items are presented alongside their recorded FACS-Seq fitted mean (log10).

# mutant, FACS-Seq fitted mean (log10)
measured = [
    ("UUUAGU", 0.632),
    ("UUAAGA", 0.684),
    ("GAAACG", 0.287),
    ("GGCGAU", 0.679),
    ("CAAAGU", 0.529),
    ("UGGAGA", 0.259),
    ("AACCGU", 0.798),
    ("UUCGCA", 0.468),
    ("AACAGU", -0.0447),
    ("CAGAGG", 0.273),
    ("AGCCUU", 0.466),
    ("CGGAAA", 0.32),
    ("UCGCAG", 0.221),
    ("AAGUAU", 0.434),
    ("AGCAAU", 0.645),
    ("ACACCC", 0.129),
    ("AUUAAA", 0.84),
    ("GGCGCA", 0.59),
    ("GCAGGA", 0.661),
    ("GCAGCA", 0.363),
    ("GCGUGA", 0.278),
    ("AGAAGA", 0.156),
    ("UUAGAA", 0.092),
    ("GAGCGG", -0.363),
    ("AGAUGU", 0.466),
    ("UUGAAA", 0.426),
    ("GCAUCG", 0.0876),
    ("AGGGCA", 0.0731),
    ("AUAACA", 0.00278),
    ("GCUCAA", 0.941),
    ("GAGUAG", -0.0875),
    ("GUGCCG", 0.641),
    ("ACGGGG", -0.145),
    ("GCCUAA", 0.363),
    ("AAUAGG", 0.109),
    ("UGCCUG", 0.608),
    ("AAGCAG", -0.122),
    ("ACGGUA", 0.318),
    ("AUAAGC", 0.474),
    ("CGACGG", 0.267),
    ("CUAAUG", 0.65),
    ("ACUUAA", 0.504),
    ("AGUCGA", 0.423),
    ("ACUGAC", 0.249),
    ("GUGUAA", 0.291),
    ("GUCCCG", 0.415),
]
